Every entry's value here was drawn from patent US8710043B2.

- TARGET_ENTITY: human TRPM8 (Homo sapiens)
- Construct: expressed in transfected cells; host or cells: Chinese hamster ovary (CHO) cells, T-REx tetracycline-inducible system, co-transfected with aequorin
- ASSAY_TEXT: Luminescence readout assay for measuring intracellular calcium, icilin activation
- Type: cell-based
- CONDITION_PARAMETERS: CHO cells expressing human TRPM8, aequorin luminescence, 1 μM icilin activation; read-out: hTRPM8 IC50
MEASURED_METRIC: IC50 (µM)

Below: 6 molecules and their reported IC50.
Given item O=C(N[C@@H](c1ccc(C(F)(F)F)cc1)c1ncccc1F)c1cccnc1 [Example 203] , the value recorded as its IC50 is 0.135

Given item O=C(N[C@@H](c1ccc(OC(F)(F)F)cc1)c1ncccc1F)c1ccc2oc(=O)[nH]c2c1 [Example 79] , the value recorded as its IC50 is 0.0051

Given item Cc1ccnn1CC(=O)N[C@@H](c1ccc(C(F)(F)F)cc1)c1ncccc1C(F)(F)F [Example 153] , the value recorded as its IC50 is 0.373

Given item O=C(N[C@@H](c1ccc(OC(F)(F)F)cc1)c1ncccc1F)c1ccn2nnnc2c1 [Example 310] , the value recorded as its IC50 is 0.016

Given item Cc1cc(C)cc([C@H](NC(=O)c2ccc(=O)[nH]c2)c2ncccc2F)c1 [Example 324] , the value recorded as its IC50 is 1.05

Given item Cc1cc(C(=O)N[C@@H](c2ccc(C(F)(F)F)cc2)c2ncccc2F)ccn1 [Example 53] , the value recorded as its IC50 is 0.0455

A: O=C(N[C@@H](c1ccc(OC(F)(F)F)cc1)c1ncccc1F)c1ccc(-c2nc(=O)o[nH]2)cc1 [Example 316]
B: C[C@@H](O)Cn1cc(C(=O)N[C@@H](c2ccc(OC(F)(F)F)c(F)c2)c2ncccc2F)ccc1=O [Example 299]
Q: Of A and B , which one carries the higher reported IC50? Use the label to indicate which entry you chose.
Result: A
(A: 0.0314 µM, B: 0.0175 µM)

====

- TARGET_ENTITY: human TRPM8 (Homo sapiens, UniProt Q7Z2W7)
- Construct: expressed in transfected cells; host or cells: Chinese hamster ovary (CHO) cells, T-REx tetracycline-inducible system, co-transfected with aequorin
- Sequence (Q7Z2W7 whole entry): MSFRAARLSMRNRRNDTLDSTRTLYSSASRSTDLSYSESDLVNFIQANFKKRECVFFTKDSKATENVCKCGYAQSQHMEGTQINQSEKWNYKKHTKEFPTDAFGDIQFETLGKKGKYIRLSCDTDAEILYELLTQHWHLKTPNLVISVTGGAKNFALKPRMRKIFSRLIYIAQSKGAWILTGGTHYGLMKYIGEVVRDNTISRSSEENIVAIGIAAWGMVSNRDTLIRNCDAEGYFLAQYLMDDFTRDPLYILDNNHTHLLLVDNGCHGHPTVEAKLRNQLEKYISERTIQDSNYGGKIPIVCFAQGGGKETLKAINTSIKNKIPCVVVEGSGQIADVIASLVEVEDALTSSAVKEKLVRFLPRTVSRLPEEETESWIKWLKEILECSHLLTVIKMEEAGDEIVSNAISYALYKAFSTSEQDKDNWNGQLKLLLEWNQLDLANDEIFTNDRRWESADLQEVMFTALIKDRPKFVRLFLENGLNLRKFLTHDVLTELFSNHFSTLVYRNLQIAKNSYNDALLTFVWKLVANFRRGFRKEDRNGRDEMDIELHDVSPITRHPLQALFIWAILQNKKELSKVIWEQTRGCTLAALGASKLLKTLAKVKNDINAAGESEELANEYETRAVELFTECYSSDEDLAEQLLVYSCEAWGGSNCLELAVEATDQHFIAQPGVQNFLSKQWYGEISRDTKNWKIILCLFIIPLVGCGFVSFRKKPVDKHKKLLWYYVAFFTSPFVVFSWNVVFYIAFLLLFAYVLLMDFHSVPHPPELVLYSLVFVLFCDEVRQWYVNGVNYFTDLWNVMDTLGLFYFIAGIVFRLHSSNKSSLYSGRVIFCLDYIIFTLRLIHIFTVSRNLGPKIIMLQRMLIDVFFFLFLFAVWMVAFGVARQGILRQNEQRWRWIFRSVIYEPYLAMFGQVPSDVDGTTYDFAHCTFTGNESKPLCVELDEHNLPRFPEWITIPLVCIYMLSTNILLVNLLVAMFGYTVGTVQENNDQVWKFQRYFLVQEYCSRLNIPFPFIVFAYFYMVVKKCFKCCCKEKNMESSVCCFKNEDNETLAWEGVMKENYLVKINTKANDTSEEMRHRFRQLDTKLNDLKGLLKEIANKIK
- ASSAY_TEXT: Luminescence readout assay for measuring intracellular calcium, icilin activation
- Type: cell-based
- CONDITION_PARAMETERS: CHO cells expressing human TRPM8, aequorin luminescence, 1 μM icilin activation; read-out: hTRPM8 IC50
pIC50: −log10 of the molar value.
MEASURED_METRIC: pIC50

Below: 4 molecules and their reported pIC50.
Record CCCc1cccnc1[C@@H](NC(=O)c1ccc(=O)[nH]c1)c1ccc(C(F)(F)F)cc1 / human TRPM8 (Homo sapiens, UniProt Q7Z2W7), pIC50 recorded as 8.00

Record Cn1cc(C(=O)N[C@@H](c2cc(F)cc(C(F)(F)F)c2)c2ncccc2F)ccc1=O / human TRPM8 (Homo sapiens, UniProt Q7Z2W7), pIC50 recorded as 5.97

Record Cc1cc(C(=O)N[C@@H](c2ccc(C(F)(F)F)cc2)c2ncccc2F)c[nH]c1=O / human TRPM8 (Homo sapiens, UniProt Q7Z2W7), pIC50 recorded as 7.69

Record O=C(N[C@@H](c1ccc(C(F)(F)F)cc1)c1ncccc1C(F)(F)F)[C@H]1CC[C@@H](CO)CC1 / human TRPM8 (Homo sapiens, UniProt Q7Z2W7), pIC50 recorded as 6.23

P: O=C(N[C@@H](c1ccc(C(F)(F)F)cc1)c1ncccc1C(F)(F)F)c1ccc2c(c1)C(=O)CC2
Q: COc1ccnc(C(NC(=O)c2ccc(=O)[nH]c2)c2ccc(OC(F)(F)F)c(F)c2)c1 (centres unmarked)
R: Cc1cccnc1[C@@H](NC(=O)c1ccc(=O)[nH]c1)c1ccc(OC(F)(F)F)cc1
S: COc1ccccc1C(=O)N[C@@H](c1ccc(C(F)(F)F)cc1)c1ncccc1C(F)(F)F
Q: Sort entries by pIC50 from minimum to maximum value. Answer format: list of labels, ordered as asked.
Result: Q, P, S, R
(Q: 6.08, P: 7.11, S: 7.66, R: 7.87)
